biological target: PSMA (Homo sapiens, UniProt Q04609); construct: PSMA was prepared from LNCaP prostatic carcinoma cells as described by Pinto J. T. et al; endogenous in cells; host or cells: LNCaP prostatic carcinoma cells; assay: Inhibition of PSMA, radiolabelled N-acetylaspartylglutamate as substrate, generation of glutamic acid monitored; type: biochemical; settings: PSMA prepared from LNCaP prostatic carcinoma cells; radiolabelled N-acetylaspartylglutamate substrate; read-out: concentration that inhibited the enzyme 50%
Sequence (Q04609 whole entry): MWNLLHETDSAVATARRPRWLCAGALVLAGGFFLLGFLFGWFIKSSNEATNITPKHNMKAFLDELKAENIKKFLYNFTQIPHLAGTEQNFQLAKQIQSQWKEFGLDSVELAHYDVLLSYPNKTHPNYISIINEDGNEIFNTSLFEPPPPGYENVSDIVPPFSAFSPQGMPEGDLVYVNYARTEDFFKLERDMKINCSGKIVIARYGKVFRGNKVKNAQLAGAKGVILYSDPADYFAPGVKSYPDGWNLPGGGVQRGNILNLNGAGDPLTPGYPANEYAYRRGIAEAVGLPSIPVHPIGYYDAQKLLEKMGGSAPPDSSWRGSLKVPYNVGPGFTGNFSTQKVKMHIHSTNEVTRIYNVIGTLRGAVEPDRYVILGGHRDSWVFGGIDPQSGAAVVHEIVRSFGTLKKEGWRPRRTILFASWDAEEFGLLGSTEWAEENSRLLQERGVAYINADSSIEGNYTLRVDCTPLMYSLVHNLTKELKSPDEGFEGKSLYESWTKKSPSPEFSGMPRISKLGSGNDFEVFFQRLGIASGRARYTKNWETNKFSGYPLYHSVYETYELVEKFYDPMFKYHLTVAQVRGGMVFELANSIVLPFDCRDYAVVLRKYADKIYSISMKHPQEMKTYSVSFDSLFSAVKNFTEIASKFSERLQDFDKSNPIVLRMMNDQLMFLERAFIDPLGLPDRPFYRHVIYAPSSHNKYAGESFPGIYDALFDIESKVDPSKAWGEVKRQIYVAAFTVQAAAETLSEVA
measuredEndpoint: pIC50
Please express pIC50 as -log10 of the molar concentration.

Problem: Record O=C(O)CCC(OP(=O)(O)OCCCOCCNC(=O)CCCCCNS(=O)(=O)c1ccc(C2=c3cc4c5c(c3Oc3c2cc2c6c3CCCN6CCC2)CCC[N+]=5CCC4)c(S(=O)(=O)[O-])c1)C(=O)O (stereo not shown) : what is its pIC50 with PSMA (Homo sapiens, UniProt Q04609)?
Solution: 7.70

====

biological target: PSMA (Homo sapiens); construct: PSMA was prepared from LNCaP prostatic carcinoma cells as described by Pinto J. T. et al; endogenous in cells; host or cells: LNCaP prostatic carcinoma cells; experiment: Inhibition of PSMA, radiolabelled N-acetylaspartylglutamate as substrate, generation of glutamic acid monitored; type: biochemical
measuredEndpoint: pKi
Please express pKi as -log10 of the molar concentration.

Problem: Item O=C(O)CCC(CP(=O)(O)CCC(=O)NC(CCCCNC(=S)Nc1ccc(-c2c3ccc(=O)cc-3oc3cc(O)ccc23)c(C(=O)O)c1)C(=O)NCCc1ccc(O)cc1)C(=O)O (stereo not shown) [Compound 1.1] has what recorded pKi?
Solution: 8.47

====

Biological target: PSMA (Homo sapiens, UniProt Q04609)
Construct: PSMA was prepared from LNCaP prostatic carcinoma cells as described by Pinto J. T. et al; endogenous in cells; host or cells: LNCaP prostatic carcinoma cells
Test: Inhibition of PSMA, radiolabelled N-acetylaspartylglutamate as substrate, generation of glutamic acid monitored
Format: biochemical
Settings: PSMA prepared from LNCaP prostatic carcinoma cells; read-out: Ki for inhibition of PSMA
Description: PSMA was prepared from LNCaP prostatic carcinoma cells as described by Pinto J. T. et al., Clinical Cancer Res. Vol.2 p.1445 (1996). The enzyme was assayed employing radiolabelled N-acetylaspartylglutamate as a substrate and monitoring the generation of glutamic acid in the presence of varying concentrations of Compound 1 or 1.1. […] Compound 1.1 inhibited the enzyme 50% at 3.4 nM.
measuredEndpoint: Ki (nM)
Form entry: value (nM) — number only.

Problem: Item O=C(O)CCC(OP(=O)(O)OCCCOCCNC(=O)CCCCCNS(=O)(=O)c1ccc(C2=c3cc4c5c(c3Oc3c2cc2c6c3CCCN6CCC2)CCC[N+]=5CCC4)c(S(=O)(=O)[O-])c1)C(=O)O (stereo not shown) has what recorded Ki?
Solution: 20

====

biological target: PSMA (Homo sapiens, UniProt Q04609); construct: PSMA was prepared from LNCaP prostatic carcinoma cells as described by Pinto J. T. et al; endogenous in cells; host or cells: LNCaP prostatic carcinoma cells; assay: Inhibition of PSMA, radiolabelled N-acetylaspartylglutamate as substrate, generation of glutamic acid monitored; format: biochemical
measuredEndpoint: pIC50
Please express pIC50 as -log10 of the molar concentration.

Problem: Item O=C(O)CCC(CP(=O)(O)CCC(=O)NC(CCCCNC(=S)Nc1ccc(-c2c3ccc(=O)cc-3oc3cc(O)ccc23)c(C(=O)O)c1)C(=O)NCCc1ccc(O)cc1)C(=O)O (stereo not shown) has what recorded pIC50?
Solution: 8.47
